molecular target: Carbonic anhydrase 4 (Homo sapiens); experiment: Inhibition of recombinant human carbonic anhydrase-4 incubated for 15 mins by stopped-flow CO2 hydrase assay
Sequence (P22748 whole entry): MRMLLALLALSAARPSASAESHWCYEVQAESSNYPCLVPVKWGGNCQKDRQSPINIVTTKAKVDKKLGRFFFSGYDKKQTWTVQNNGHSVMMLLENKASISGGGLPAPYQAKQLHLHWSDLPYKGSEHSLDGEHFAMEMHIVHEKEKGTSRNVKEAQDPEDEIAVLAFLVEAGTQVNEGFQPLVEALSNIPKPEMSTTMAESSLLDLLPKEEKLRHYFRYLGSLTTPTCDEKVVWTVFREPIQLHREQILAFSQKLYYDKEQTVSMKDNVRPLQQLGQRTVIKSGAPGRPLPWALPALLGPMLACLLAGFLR
PARAMETER MEASURED: Ki (µM)

(P) NS(=O)(=O)c1ccc(OCCCCNC(=O)Cc2ccccc2Nc2c(Cl)cccc2Cl)cc1
(Q) CC(C(=O)NCCCCOc1ccc(S(N)(=O)=O)cc1)c1cccc(C(=O)c2ccccc2)c1 (racemic)
Qu. Which numeric Ki is bigger, that of P or that of Q ? Kindly state the label of the option you pick.
Ans. P
(P: 8.02 µM, Q: 0.0928 µM)

(P) CC1=C(CC(=O)NCCCCOc2ccc(S(N)(=O)=O)cc2)c2cc(F)ccc2/C1=C/c1ccc([S+](C)[O-])cc1 (stereo not given)
(Q) NS(=O)(=O)c1ccc(NC(=O)Cc2ccccc2Nc2c(Cl)cccc2Cl)cc1
Qu. Which numeric Ki is bigger, that of P or that of Q ? Kindly state the label of the option you pick.
Ans. P
